System: 786-0
Assay: NCI tumour cell line growth inhibition, 48 h
Activity calls are given as the source filed them. No stated cut-off is given here; in the data, active = GI50 up to about 1.1 µM and inactive = higher.
Classes used: true (1) (active), false (0) (inactive)

1. Cc1c2c(cc3c(=O)ccn(CCN(C)C)c13)c(=O)ccn2CCN(C)C: false (0)
2. C[C@]12CC(c3ccccc3O1)C(C(=O)NC13CC4CC(CC(C4)C1)C3)C(=O)N2 (stereo partly drawn): false (0)
3. COc1ccc(/C=C2\Sc3nnc(CNc4ccc(Cl)cc4)n3N=C2c2cc(F)c(Cl)cc2Cl)cc1OC: false (0)
4. CC(CC(=O)CO[C@H]1[C@H](O)[C@@H](O)[C@@H](O)[C@@H]2NC(=O)c3c(cc4c(c3O)OCO4)[C@H]21)OC1OC(CO)C(O)C(O)C1O (stereo partly drawn): true (1)
5. Cc1cn(CC(=S)NCCc2c[nH]c3ccccc23)c(=O)[nH]c1=O: false (0)
6. CC(/C=C/c1ccc([N+](=O)[O-])o1)=N/N1CC(CN2CCOCC2)OC1=O (stereo not drawn): false (0)
7. NC1CC(=O)c2c(Cl)sc(Cl)c21 (stereo not drawn): false (0)
8. COc1ccc(-c2cc(O)c3cc(Cl)ccc3n2)cc1: false (0)
9. NC1CC(Cl)c2c(Cl)sc(Cl)c21 (stereo not drawn): false (0)
10. CCC1CN2CCc3cc(OC)c(OC)cc3C2CC1CC1c2cc(OC)c(OC)cc2CCN1C(=O)C(Cc1c[nH]c2ccccc12)NC(=O)OC(C)(C)C (stereo not drawn): false (0)
11. CC1=NOC(=O)/C1=C/c1ccc([N+](=O)[O-])cc1: false (0)
12. N#C/C(=C/C=C/c1ccco1)C(N)=O: false (0)
13. CN1N=C(N)c2cn(C3OC(COP(=O)(O)O)C(O)C3O)c3ncnc1c23 (stereo not drawn): false (0)
14. C=CCn1c2c(sc1=S)C(S)NC=N2 (stereo not drawn): false (0)
15. COc1ccc(Nc2nc3ccccc3n3cccc23)cc1OC: false (0)
16. O=Cc1ccc(-c2ccc(-c3ccc(C=O)s3)o2)s1: false (0)
17. COc1ccc(-c2cc(-c3cc(Cl)cc(Br)c3O)nc(O)n2)cc1: false (0)
18. O=C(c1cscc1CCc1ccccc1)c1cscc1CCc1ccccc1: false (0)
19. N#[N+][c-]1c(-c2ccccc2)n[nH]c1=O: false (0)
20. O=C1NC(=S)NC(=O)C1=Cc1ccc2ccccc2n1: false (0)
21. Nc1nc(Cl)cc(NC2(CO)CCC2)n1: false (0)
22. O=C1C2=C(c3ccccc31)C(c1ccccc1Cl)NC(S)=N2 (stereo not drawn): false (0)
23. CC(=O)c1sc(Nc2nnc(-c3ccc(-c4nnc(Nc5nc(C)c(C(C)=O)s5)o4)cc3)o2)nc1C: false (0)
24. CN1CCc2cc(O)c3cc2C1Cc1ccc(cc1)Oc1cc(ccc1O)CC1c2c(cc4c(c2O3)OCO4)CCN1C (stereo not drawn): false (0)
25. C[N+]12CCCCC1C(CN1C(=O)c3ccccc3C1=O)CCC2 (stereo not drawn): false (0)
26. CC1CC(=O)N2CCCNC2=C1C#N (stereo not drawn): false (0)
27. CC(=O)OC1CC[C@@]2(C)C(=CC[C@@H]3[C@@H]2CC[C@]2(C)C(OC(C)=O)[C@H](n4ccnc4)C[C@@H]32)C1 (stereo partly drawn): false (0)
28. CC1=C(O)C(=O)c2cn(C)cc2C1=O: false (0)
29. O=C1OC(c2ccccc2)=N/C1=C/NC(Cc1c[nH]c2ccccc12)C(=O)O (stereo not drawn): false (0)
30. NC1=Nc2ccccc2Sc2nncn21: false (0)
31. COc1ccc(CCc2nccn2C)cc1OC: false (0)
32. CC1=CC(=O)C(C)(C2=NC(C)(C)CO2)c2ccccc21 (stereo not drawn): false (0)
33. c1ccc(CN2CCC3(CC2)SSC2(CCN(Cc4ccccc4)CC2)S3)cc1: false (0)
34. CSc1nc(=O)n(CCC#N)nc1SC: false (0)
35. C[C@]12CC[C@H](O)CC1=CC[C@@H]1[C@@H]2CC[C@]2(C)C(=O)[C@@H](N3CCOCC3)C[C@@H]12: false (0)
36. O=C(CCc1nnc2s/c(=C\c3ccccc3Cl)c(=O)n12)Nc1cc(Cl)ccc1Cl: false (0)
37. COC(=O)C1=C(C[S+]([O-])c2ccccc2[N+](=O)[O-])ON(C)C1c1ccccc1 (stereo not drawn): false (0)
38. COc1cc(/C=C2\C[C@H]3[C@@H]4CC=C5C[C@@H](OC(C)=O)CC[C@]5(C)[C@H]4CC[C@]3(C)\C2=N\O)cc(OC)c1OC: false (0)
39. CC(=O)Nc1cc(Cl)cc(Cl)c1O: false (0)
40. CC(C)NC(=O)CN1CCN(C2=CC(=O)c3c(O)ccc(O)c3C2=O)CC1: false (0)
41. O=S1OC2(c3ccccc3-c3ccccc32)c2ccccc21 (stereo not drawn): false (0)
42. O=c1[nH]c(=O)n([C@H]2CCCO2)cc1F: false (0)
43. S=c1nc(N2CCCCC2)c2cn[nH]c2[nH]1: false (0)
